target: T1, human PILRA, G78 variant, ectopically expressed on 293 cells (human, UniProt Q9UKJ1 20-303); assay: flow cytometry; blocking of NPDC1-hIgG1 binding to 293 cells expressing human PILRA G78
T1 construct: the cells are labelled G78; also called hA G78 OE; hA
T1 sequence (Q9UKJ1 other isoform, or with tags, fused parts or gaps mutant): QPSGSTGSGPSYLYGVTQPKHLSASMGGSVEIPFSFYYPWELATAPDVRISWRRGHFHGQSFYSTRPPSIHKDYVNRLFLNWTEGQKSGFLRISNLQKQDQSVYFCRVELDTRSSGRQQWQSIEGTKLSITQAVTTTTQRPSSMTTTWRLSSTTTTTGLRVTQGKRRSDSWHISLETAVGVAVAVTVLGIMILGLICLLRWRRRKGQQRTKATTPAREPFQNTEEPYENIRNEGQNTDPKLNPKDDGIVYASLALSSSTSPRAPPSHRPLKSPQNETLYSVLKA
Listed next: entries and their corresponding IC50.

binder	IC50 [µg/mL]
A4 (antibody, V domains shown, phage campaign) VH: QVQLVQSGAEVKKPGSSVKVSCKASGYTFTGYAVNWVRQAPGQGLEWMGGIIPIFGTANYAQKFQGRVTITADESTSTAYMELSSLRSEDTAVYYCARNLGYSSGWSGYYYGMDVWGQGTMVTVSS VL: EIVMTQSPATLSVSPGERATLSCRASQSVSSNYLAWYQQKPGQAPRLLIYGASTRATGIPARFSGSGSGTEFTLTISSLQSEDFAVYYCQQYGSSSFTFGPGTKLEIK	0.32
A3 (antibody, V domains shown, phage campaign) VH: EVQLLESGGGLVQPGGSLRLSCAASGFTFSRYEMNWVRQAPGKGLEWVAGISYDGSYEYYADSVKGRFTISRDNSKNTLYLQMNSLRAEDTAVYYCAKGSYGYDAFDIWGQGTMVTVSS VL: DIQMTQSPSSLSASVGDRVTITCRASQSISSWLAWYQQKPGKAPKLLIYATSTLQSGVPSRFSGSGSGTDFTLTISSLQPEDFATYYCQQSYSPPYTFGQGTKVEIK	0.38
A5 (antibody, V domains shown, phage campaign) VH: QVQLVQSGAEVKKPGSSVKVSCKASGYTFTDYYMNWVRQAPGQGLEWMGGIIPIFGTADYAQRFQGRVTITADESTSTAYMELSSLRSEDTAVYYCARDAGYYGMDVWGQGTLVTVSS VL: EIVMTQSPATLSVSPGERATLSCRASQSVSNYLAWYQQKPGQAPRLLIYGASTRATGIPARFSGSGSGTEFTLTISSLQSEDFAVYYCQQFDDLPLTFGPGTKVEIK	0.64
